procedure_summary: in vivo
run_parameters: Sprague-Dawley, rat, iv, 10 mg/kg
measured_property: half-life (min)

INSERT INTO assay_data (compound, measured_property, units_text, recorded_result) VALUES
  ('C[C@H]1COc2c(N3CCN(C)CC3)c(F)cc3c(=O)c(C(=O)O)cn1c23 [Levofloxacin, levofloxacin]', 'half-life', 'min', 30);

* * *

Items are presented alongside their recorded AUC.
procedure_summary: in vivo
run_parameters: male, Sprague-Dawley, rat, in vivo, inhaled or intranasal, 10 mg/kg
Protocol: This example relates to aerosol and intravenous administration of fluoroquinolones in saline. A rat pharmacokinetic model was used to compare intravenous and pulmonary administration of fluoroquinolones. […] Approximately 0.3 ml blood samples were taken from 2-6 rats at each timepoint via an indwelling jugular vein cannula, and collected in lithium heparin tubes. […] Sample concentrations were determined against a standard curve.
measured_property: AUC (ng·h/mL)

INSERT INTO results (compound, measured_property, units_text, recorded_result) VALUES
  ('COc1c(N2CCNC(C)C2)c(F)cc2c(=O)c(C(=O)O)cn(C3CC3)c12 (stereo not shown)', 'AUC', 'ng·h/mL', 3120),
  ('CO/N=C1\CN(c2nc3c(cc2F)c(=O)c(C(=O)O)cn3C2CC2)CC1CN (stereo not shown)', 'AUC', 'ng·h/mL', 140000),
  ('C[C@H]1COc2c(N3CCN(C)CC3)c(F)cc3c(=O)c(C(=O)O)cn1c23', 'AUC', 'ng·h/mL', 3000),
  ('CCn1cc(C(=O)O)c(=O)c2cc(F)c(N3CCNCC3)cc21', 'AUC', 'ng·h/mL', 24600);
